Target: T1, human CD8 (captured on the Octet biosensor) (human, UniProt P01732 22-182, limits assumed)
T1 construct: Construct not described; also called recombinant human CD8a
T1 sequence (P01732 22-182 limits assumed): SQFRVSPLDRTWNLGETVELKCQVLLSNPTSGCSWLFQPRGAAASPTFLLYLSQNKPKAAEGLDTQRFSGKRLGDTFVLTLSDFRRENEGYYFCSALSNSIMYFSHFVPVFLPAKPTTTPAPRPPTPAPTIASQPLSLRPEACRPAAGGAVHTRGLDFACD
Assay: Octet (BLI); human CD8 captured, dipped into multiple concentrations of the one-arm mAb
READOUT TYPE: Kd
The reply should consist of the numeric value with the unit placed after it.

XENP26235 (antibody, V domains shown, also called OKT8_H2.158_L1.103 one-arm mAb) VH: QVQLVQSGAEVKKPGASVKVSCKASGFNIKDTYIHWVRQAPGKGLEWMGRIDPDNGETLYASKFQGRVTMTADTSINTAYMELSRLRSDDTAVYYCGRGYGYYYFDHWGQGTTVTVSS VL: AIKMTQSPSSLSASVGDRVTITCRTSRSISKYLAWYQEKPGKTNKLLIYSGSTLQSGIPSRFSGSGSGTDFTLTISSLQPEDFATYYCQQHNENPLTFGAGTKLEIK
1.38 nM

We now examine a further binder.
Please fill in: Kd reported for XENP26231 (antibody, V domains shown, also called OKT8_H2.154_L1.103 one-arm mAb) VH: QVQLVQSGAEVKKPGASVKVSCKASGFNIKDTYIHWVRQAPGKGLEWMGRIDPDNGETLYASKFQGRVTITADTSINTAYMELSRLRSDDTAVYYCGRGYGKYVFDHWGQGTTVTVSS VL: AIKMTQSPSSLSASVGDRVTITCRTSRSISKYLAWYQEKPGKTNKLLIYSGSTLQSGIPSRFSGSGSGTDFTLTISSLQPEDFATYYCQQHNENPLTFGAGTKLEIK = 95.5 nM

The reported measurements were obtained from patent US12448423.
